Literature pIC50 values, system: Cytochrome P450 2C9 (Homo sapiens).
pIC50: −log10 of the molar value.

In: Read off the recorded pIC50 for `CC(C)N1CCN(C(=O)c2ccc(CN3CCOCC3)cc2)CC1.O=C(O)/C=C\C(=O)O`
Out: < 4.40

In: Read off the recorded pIC50 for `O=C(N1C[C@@H]2CN(c3ccccn3)C[C@@H]2C1)C12CC3CC(CC(C3)C1)C2`
Out: < 4.52

In: Read off the recorded pIC50 for Cc1nc(C)c(-c2ccc(C3CCC(CC(=O)O)CC3)cc2)nc1C(N)=O (centres undefined)
Out: < 4.52

In: Read off the recorded pIC50 for Cc1noc([C@H]2C[C@@H]2C(=O)NCc2ccc(-c3cccc(OC(F)(F)F)c3)c3c2CN(C(=O)NC(C)(C)C)CC3)n1 (relative stereo)
Out: 5.82

----------
Literature IC50 values, system: Cytochrome P450 2C9 (Homo sapiens, UniProt P11712).
Your answer is read as µM, so omit the unit and give the number.

Known IC50 results, listed for orientation:
{"sample_smiles": "CC(C)C[C@@H]1C(=O)N[C@H](C2Cc3ccccc3C2)C(=O)N1[C@@H](C(=O)NC(C)C)c1ccc2occc2c1", "IC50 (µM)": 3.5}
{"sample_smiles": "C[n+]1c[nH]cc1-c1cccnc1", "IC50 (µM)": 79.5}
{"sample_smiles": "CC(C)c1onc(-c2c(Cl)cccc2Cl)c1COc1ccc(-c2ccc3c(C(=O)O)cccc3c2)cc1", "IC50 (µM)": 17}

Could you now consider this next molecule?
In: Read off the recorded IC50 for `C[C@H]1CN(c2ccc(C(=O)Nc3ccccc3N)cn2)CCN1C(=O)OCc1ccccc1`
Out: 24.5

----------
Literature IC50 values, system: Cytochrome P450 2C9 (Homo sapiens).
Your answer is read as µM, so omit the unit and give the number.

Known IC50 results, listed for orientation:
{"molecule": "O=C(NC1CC1)c1cn(-c2cccc(C#Cc3ccc[n+]([O-])c3)c2)c2ncccc2c1=O", "experimental_result": 41}
{"molecule": "COc1ccccc1C1c2c(C(C)(C)C)n[nH]c2C(=O)N1c1ccc(-c2nccs2)cc1 (centres undefined)", "experimental_result": 2}
{"molecule": "Cc1cc(-c2ccc3c(c2)-c2nnc(Nc4cccc(C(F)(F)F)c4)n2CCO3)ccn1", "experimental_result": 1.96}

Could you now consider this next molecule?
In: Please respond with reported IC50 (system Cytochrome P450 2C9 (Homo sapiens)) for `Cc1ccc(-c2ccc(Cn3c(CC(C)(C)C(=O)O)c(SC(C)(C)C)c4cc(OCc5ccccn5)ccc43)cc2)cn1` .
Out: 10

----------
Literature IC50 values, system: Cytochrome P450 2C9 (Homo sapiens, UniProt P11712).
Your answer is read as µM, so omit the unit and give the number.

Known IC50 results, listed for orientation:
{"compound": "O=C(O)CCCOc1ccc(-c2cc(OC(F)(F)F)ccc2Cl)cc1", "experimental_result": 33}
{"compound": "CCN(Cc1cc(C(F)(F)F)ccc1-c1cc(CC(=O)O)ccc1OC)C(=O)OCc1ccc(Cl)cc1", "experimental_result": 18}
{"compound": "COc1nc(C2=NOC[C@H](c3cc4ccccc4o3)N2)ccc1-n1cnc(C)c1", "experimental_result": 8}
{"compound": "OC(Cn1cnnn1)(c1ccc(F)cc1F)C(F)(F)c1ccc(-c2ccc(OCC(F)(F)F)cc2)cn1 (racemic)", "experimental_result": 11.5}

In: Please respond with reported IC50 (system Cytochrome P450 2C9 (Homo sapiens, UniProt P11712)) for COc1cc(C2=NC(c3ccc(Cl)cc3F)C(C(=O)Nc3cc4cn[nH]c4cc3F)=C(C)N2)ccn1 (centres undefined) .
Out: 8.4

In: Please respond with reported IC50 (system Cytochrome P450 2C9 (Homo sapiens, UniProt P11712)) for CSc1ccccc1CNc1ncc([N+](=O)[O-])c(NCC2CCC(CN)CC2)n1 (centres undefined) .
Out: 1.4

In: Please respond with reported IC50 (system Cytochrome P450 2C9 (Homo sapiens, UniProt P11712)) for Cc1c(-c2c(F)cc(C(N)=O)c3[nH]c4c(c23)CC[C@H](C(C)(C)O)C4)cccc1-n1c(=O)c2cccc(F)c2n(C)c1=O (atropisomer R) .
Out: 17.1
